All figures here come from patent US6521632B2.

# Ki annotations
Target chain: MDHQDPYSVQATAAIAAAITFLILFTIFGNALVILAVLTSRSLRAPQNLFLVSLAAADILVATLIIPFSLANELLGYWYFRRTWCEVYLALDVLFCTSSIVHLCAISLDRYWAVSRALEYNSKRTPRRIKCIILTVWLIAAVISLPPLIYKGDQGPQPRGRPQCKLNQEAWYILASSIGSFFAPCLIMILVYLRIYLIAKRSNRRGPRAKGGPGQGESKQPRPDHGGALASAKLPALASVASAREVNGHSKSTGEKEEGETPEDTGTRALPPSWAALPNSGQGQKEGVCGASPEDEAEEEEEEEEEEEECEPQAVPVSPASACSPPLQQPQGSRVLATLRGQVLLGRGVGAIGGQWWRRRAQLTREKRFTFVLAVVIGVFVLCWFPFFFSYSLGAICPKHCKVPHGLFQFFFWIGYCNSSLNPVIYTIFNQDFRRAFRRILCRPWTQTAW
Field format: number, assumed nM, no unit text.

These solved cases illustrate the format of a correct answer.
COMPOUND | REPORTED
CCOc1ccc(C(=O)Nc2ccc(S(=O)(=O)Nc3nc(C)cc(C)n3)cc2)cc1 [C] | 1860
Cc1cc(C)nc(NS(=O)(=O)c2ccc(NC(=O)/C=C/c3ccc(F)cc3)cc2)n1 [D] | 530

Task: Quick check: Ki of CCn1c(CNc2ccc(S(=O)(=O)Nc3nc(C)cc(C)n3)cc2)nc2ccccc21 [A] ?
Result: 30

* * *

# SYSTEM UNDER TEST: human α2A-adrenoceptor (Homo sapiens, UniProt P08913)
# Sequence (P08913 whole entry): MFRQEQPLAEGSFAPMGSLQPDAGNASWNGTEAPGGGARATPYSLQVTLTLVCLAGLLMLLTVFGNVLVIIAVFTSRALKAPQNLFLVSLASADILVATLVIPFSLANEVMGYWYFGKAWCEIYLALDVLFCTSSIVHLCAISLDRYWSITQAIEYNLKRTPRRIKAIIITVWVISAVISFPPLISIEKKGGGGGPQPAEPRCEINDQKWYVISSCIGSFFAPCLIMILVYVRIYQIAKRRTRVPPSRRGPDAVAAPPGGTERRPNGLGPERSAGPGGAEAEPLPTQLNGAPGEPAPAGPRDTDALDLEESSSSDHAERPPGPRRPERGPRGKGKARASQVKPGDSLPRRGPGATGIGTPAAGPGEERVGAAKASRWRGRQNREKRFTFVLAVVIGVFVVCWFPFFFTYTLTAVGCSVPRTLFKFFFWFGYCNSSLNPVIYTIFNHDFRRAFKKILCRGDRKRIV
# ASSAY METHOD TEXT: Competition binding with 3H-rauwolscine, human alpha-2A
# Parameters: expressed in transfected cells; host or cells: Shionogi S115 cells (membranes)
# CONDITION INFO: Mean ± SEM, n = 3 unless indicated, membranes of Shionogi S115 cells, read-out: Binding affinity Ki alpha-2A
pKi: −log10 of the molar value.
PROPERTY LABEL: pKi

These solved cases illustrate the format of a correct answer.
QUERY SMILES | pKi
Cc1cc(C)nc(NS(=O)(=O)c2ccc(NC(=O)COc3ccccc3)cc2)n1 | < 4.00
Cc1cc(C)nc(NS(=O)(=O)c2ccc(NC(=O)/C=C/c3ccc(F)cc3)cc2)n1 | < 4.52

Task: Quick check: pKi of CCOc1ccc(C(=O)Nc2ccc(S(=O)(=O)Nc3nc(C)cc(C)n3)cc2)cc1 ?
Result: < 4.52

* * *

# SYSTEM UNDER TEST: rat neocortical α1-adrenoceptors
# ASSAY METHOD TEXT: Competition binding with 3H-prazosin, rat neocortex membranes
# CONDITION INFO: concentrations of up to 30 μM, read-out: IC50, displacement of 3H-prazosin
pIC50: −log10 of the molar value.
PROPERTY LABEL: pIC50

Task: Quick check: pIC50 of CCn1c(CNc2ccc(S(=O)(=O)Nc3nc(C)cc(C)n3)cc2)nc2ccccc21 [A] ?
Result: < 4.52
